The measured values listed here are drawn from patent US20210047278A1.

- experimental system: FBW7^ARG (RLFBW7) alone (Homo sapiens, UniProt Q969H0, R505L)
- Construct: GST (TEV site and flexible linker) (N, cleaved yes); made in house; host or cells: SF9 insect cells (baculovirus)
- Sequence (Q969H0 64-707 R505L): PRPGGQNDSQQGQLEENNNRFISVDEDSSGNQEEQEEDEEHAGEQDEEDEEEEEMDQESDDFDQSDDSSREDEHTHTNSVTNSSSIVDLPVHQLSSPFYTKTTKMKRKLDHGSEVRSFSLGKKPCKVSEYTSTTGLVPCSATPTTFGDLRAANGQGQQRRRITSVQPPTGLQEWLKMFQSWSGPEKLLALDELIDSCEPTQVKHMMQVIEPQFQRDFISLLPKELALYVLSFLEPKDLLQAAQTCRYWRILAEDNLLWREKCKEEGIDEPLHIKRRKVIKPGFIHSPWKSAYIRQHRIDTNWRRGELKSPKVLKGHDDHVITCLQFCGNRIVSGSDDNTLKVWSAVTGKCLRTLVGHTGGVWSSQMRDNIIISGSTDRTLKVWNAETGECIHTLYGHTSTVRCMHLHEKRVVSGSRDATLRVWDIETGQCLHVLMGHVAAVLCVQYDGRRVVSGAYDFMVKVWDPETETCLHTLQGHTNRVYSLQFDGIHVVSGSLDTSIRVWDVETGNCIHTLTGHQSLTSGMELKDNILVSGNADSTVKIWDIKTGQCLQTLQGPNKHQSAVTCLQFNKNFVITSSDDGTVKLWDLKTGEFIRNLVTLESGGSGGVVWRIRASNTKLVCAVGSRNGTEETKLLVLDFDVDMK
- Sequence (P63208 2-163 partner): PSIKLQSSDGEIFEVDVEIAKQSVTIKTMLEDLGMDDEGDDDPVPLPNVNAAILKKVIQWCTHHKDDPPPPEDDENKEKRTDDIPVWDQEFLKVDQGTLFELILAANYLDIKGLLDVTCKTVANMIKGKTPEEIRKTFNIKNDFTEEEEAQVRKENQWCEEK
- measurement description: Counterscreen 1 ALPHAscreen with FBW7^ARG alone (CSRUN1/DCSRUN1)
- Assay type: binding
- test context: dose-response counterscreen, read-out: RLFBW7 ACT DCSRUN1 Final EC50
Reported EC50 values for a set of compounds
attribute measured: EC50

>  <compound>
COc1ccc(C2CC(=O)C3=C(C2)NC(C)=C(C(=O)OC(C)C)C3c2ccccc2OC(C)C)cc1 (stereo not drawn)

>  <attribute measured>
EC50

>  <result value>
> 42.9 µM

$$$$
>  <compound>
O=C(Cc1ccc(Br)cc1)N1CCC(c2nc(O)c3cnccc3n2)C1.O=C(O)C(F)(F)F (stereo not drawn)

>  <attribute measured>
EC50

>  <result value>
> 65.3 µM

$$$$
>  <compound>
CN(C)CC[S+]([O-])c1cc(-c2cn[nH]c2)ccc1NC(=O)[C@@H]1Cc2cc(F)ccc2CN1.O=C(O)C(F)(F)F (stereo partly drawn)

>  <attribute measured>
EC50

>  <result value>
> 65.3 µM

$$$$
>  <compound>
CCN(CC)c1ccc2c(c1)OC(N)=C(C#N)C2c1ccccc1 (stereo not drawn)

>  <attribute measured>
EC50

>  <result value>
> 65.3 µM

$$$$
>  <compound>
COc1cc2c(cc1OC)C(COc1ccc([N+](=O)[O-])cc1)N(C(=O)c1ccc3c(c1)OCO3)CC2 (stereo not drawn)

>  <attribute measured>
EC50

>  <result value>
> 49.8 µM

$$$$
>  <compound>
CCSc1nnc(C2CCN(CC(=O)Nc3cccc4ccccc34)CC2)n1C

>  <attribute measured>
EC50

>  <result value>
> 65.3 µM

$$$$
>  <compound>
Cc1cc(OCC(=O)Nc2ccc3oc(-c4ccccc4Br)nc3c2)cc(C)c1Cl

>  <attribute measured>
EC50

>  <result value>
> 43.2 µM

$$$$
>  <compound>
COc1ccc(N2C(=O)CC(SCCN)C2=O)cc1 (stereo not drawn)

>  <attribute measured>
EC50

>  <result value>
> 87.4 µM

$$$$
>  <compound>
Cc1ccc(-c2nnc(N3CCN(C(=O)c4ccco4)CC3)c3ccccc23)cc1

>  <attribute measured>
EC50

>  <result value>
> 54 µM

$$$$
>  <compound>
CCC(C)OC(=O)C1=C(C)NC2=C(C(=O)CC(c3ccccc3)C2)C1c1cccc2ccccc12 (stereo not drawn)

>  <attribute measured>
EC50

>  <result value>
> 47.6 µM

$$$$
>  <compound>
O=C(Nc1ccc2oc(-c3ccc4ccccc4c3)nc2c1)c1cccc(Cl)c1Cl

>  <attribute measured>
EC50

>  <result value>
> 56.6 µM

$$$$
>  <compound>
O=C(c1ccco1)N1CCN(c2ncc(-c3ccccc3CO)n3ccnc23)CC1

>  <attribute measured>
EC50

>  <result value>
> 65.3 µM

$$$$
>  <compound>
CN(C)CCN(C)c1nc([C@H](N)Cc2cccc(F)c2)cc2ccc(-c3cn[nH]c3)cc12.O=C(O)C(F)(F)F

>  <attribute measured>
EC50

>  <result value>
> 16.3 µM

$$$$
>  <compound>
CCC(C)OC(=O)C1=C(C)NC2=C(C(=O)CC(c3ccc(Cl)cc3)C2)C1c1cccc(Cl)c1 (stereo not drawn)

>  <attribute measured>
EC50

>  <result value>
> 45.8 µM

$$$$
>  <compound>
Cc1ncn(-c2ccc(Nc3cc(-c4nocc4-c4ccccn4)ccn3)cc2)n1.O=C(O)C(F)(F)F

>  <attribute measured>
EC50

>  <result value>
> 65.3 µM

$$$$
>  <compound>
COc1cccc(C=O)c1OC(=O)c1cccc(Cl)c1

>  <attribute measured>
EC50

>  <result value>
> 65.3 µM

$$$$
>  <compound>
CC1=C(C(=O)OCc2ccccc2)C(c2cn(-c3ccccc3)nc2-c2ccc(F)cc2)C(C(=O)OCc2ccccc2)=C(C)N1

>  <attribute measured>
EC50

>  <result value>
> 34.2 µM

$$$$
>  <compound>
O=C(Nc1ccc2c(c1)OCO2)N1CCC(c2nnc(C3CC3)s2)CC1

>  <attribute measured>
EC50

>  <result value>
> 65.3 µM

$$$$
>  <compound>
CC1=C(C(=O)OC(C)C)C(c2ccncc2)C2=C(CC(c3ccccc3)CC2=O)N1 (stereo not drawn)

>  <attribute measured>
EC50

>  <result value>
> 60.9 µM

$$$$
>  <compound>
CCN(Cc1ccccc1)C(=O)c1cc2c(=O)n3cccc(C)c3nc2n1C

>  <attribute measured>
EC50

>  <result value>
> 65.3 µM

$$$$
>  <compound>
Cc1cccc(NC(=O)N2CCC(c3nnc(C4CC4)s3)CC2)c1

>  <attribute measured>
EC50

>  <result value>
> 65.3 µM

$$$$
>  <compound>
CCOc1ccc(Br)cc1C1C2=C(CCCC2=O)N(CC(=O)O)C2=C1C(=O)CCC2

>  <attribute measured>
EC50

>  <result value>
> 43.6 µM

$$$$
>  <compound>
C/C(=N\Nc1cccc(C(F)(F)F)c1)C1CC1

>  <attribute measured>
EC50

>  <result value>
39.8 µM

$$$$
>  <compound>
CCN1C(=O)c2cccc3c(N4CCCC4)ccc(c23)C1=O

>  <attribute measured>
EC50

>  <result value>
> 65.3 µM

$$$$
>  <compound>
CCCOC(=O)C1=C(C)N(CC)C(=O)NC1c1ccccc1[N+](=O)[O-] (stereo not drawn)

>  <attribute measured>
EC50

>  <result value>
> 67.2 µM

$$$$
>  <compound>
Cc1nc(C(C)NC(=O)c2cc(COc3ccc(F)cc3F)on2)cs1 (stereo not drawn)

>  <attribute measured>
EC50

>  <result value>
> 65.3 µM

$$$$
>  <compound>
CC1=C(C(=O)OC2CCCCC2)C(c2ccc(F)cc2)C2=C(CC(c3ccccc3)CC2=O)N1 (stereo not drawn)

>  <attribute measured>
EC50

>  <result value>
> 50.8 µM

$$$$
